- tested_target: T1, PTH (53-84) (UniProt P01270 84-115)
- T1 chain: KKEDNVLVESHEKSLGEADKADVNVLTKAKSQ
- protocol_description: fluorescent magnetic bead binding assay; peptide on beads, aptamer 100-2500 nM; Bead assay: SELEX conditions (PBS, room temperature), 30 min incubation then wash, pH not stated; EIS: 30 min at ambient temperature, PBS wash, read in 0.1 M KCl with 5 mM ferri/ferrocyanide
- condition_parameters: protein: commercial; tags: none stated; amine-coupled to carboxy magnetic beads
quantity_measured: pKd
Answers are plain numbers, as −log10 of the molar value.

Look at this binder and give its reported pKd. GCGTGGTATGTGCGTCGTCGCTAATGAATTTGTAGCCTAC (ssDNA) [Aptamer-PTH (53-84)] 6.66
